Value source: patent US20240376185A1

maximal absorbance at 450 nm by entry:
molecular target: tetanus neurotoxin (TeNT), authentic tetanus holotoxin (Clostridium tetani, UniProt P04958 2-1315); experiment: ELISA, directly coated TeNT, unlabelled binder
Sequence (P04958 2-457 limits assumed, chain 1 of 2): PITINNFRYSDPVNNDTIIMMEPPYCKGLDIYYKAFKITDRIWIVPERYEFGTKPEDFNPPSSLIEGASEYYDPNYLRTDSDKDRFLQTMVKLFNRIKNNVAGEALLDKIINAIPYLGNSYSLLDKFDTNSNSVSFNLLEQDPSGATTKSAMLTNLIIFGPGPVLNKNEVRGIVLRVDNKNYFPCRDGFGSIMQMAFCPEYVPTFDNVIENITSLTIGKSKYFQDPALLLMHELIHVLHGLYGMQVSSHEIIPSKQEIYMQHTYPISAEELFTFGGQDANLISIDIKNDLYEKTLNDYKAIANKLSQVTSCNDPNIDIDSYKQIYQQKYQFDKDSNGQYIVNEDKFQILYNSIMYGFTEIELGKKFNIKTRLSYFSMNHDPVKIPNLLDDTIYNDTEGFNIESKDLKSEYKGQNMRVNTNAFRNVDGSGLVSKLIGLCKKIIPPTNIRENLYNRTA
Sequence (P04958 458-1315 limits assumed, chain 2 of 2): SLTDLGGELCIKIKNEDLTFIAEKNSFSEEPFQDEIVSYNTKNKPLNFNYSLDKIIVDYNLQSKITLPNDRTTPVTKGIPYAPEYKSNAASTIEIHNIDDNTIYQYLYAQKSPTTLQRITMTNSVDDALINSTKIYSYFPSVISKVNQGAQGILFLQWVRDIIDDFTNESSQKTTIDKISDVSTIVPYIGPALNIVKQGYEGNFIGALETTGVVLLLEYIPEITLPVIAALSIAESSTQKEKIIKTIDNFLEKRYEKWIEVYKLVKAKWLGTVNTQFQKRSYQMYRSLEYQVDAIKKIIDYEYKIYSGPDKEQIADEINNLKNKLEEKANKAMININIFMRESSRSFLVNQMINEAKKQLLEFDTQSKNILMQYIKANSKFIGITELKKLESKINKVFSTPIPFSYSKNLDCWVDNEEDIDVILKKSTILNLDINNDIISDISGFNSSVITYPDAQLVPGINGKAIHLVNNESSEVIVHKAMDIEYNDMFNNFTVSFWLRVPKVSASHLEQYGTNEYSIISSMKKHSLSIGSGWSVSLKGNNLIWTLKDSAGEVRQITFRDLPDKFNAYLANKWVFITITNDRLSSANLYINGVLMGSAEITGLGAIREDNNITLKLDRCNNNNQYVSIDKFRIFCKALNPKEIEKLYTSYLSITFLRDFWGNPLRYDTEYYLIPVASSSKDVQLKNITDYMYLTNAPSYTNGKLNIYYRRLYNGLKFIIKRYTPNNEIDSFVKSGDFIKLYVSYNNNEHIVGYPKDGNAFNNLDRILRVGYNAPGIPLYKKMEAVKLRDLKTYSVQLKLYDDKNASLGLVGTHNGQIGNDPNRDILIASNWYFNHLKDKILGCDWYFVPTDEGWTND

{"binder": "SVT03L (VHH) VHH: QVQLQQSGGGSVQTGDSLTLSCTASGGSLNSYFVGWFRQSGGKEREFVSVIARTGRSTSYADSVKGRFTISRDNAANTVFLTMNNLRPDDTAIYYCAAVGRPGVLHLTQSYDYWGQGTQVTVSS", "maximal absorbance at 450 nm": 0.104}
{"binder": "SVT16L (VHH) VHH: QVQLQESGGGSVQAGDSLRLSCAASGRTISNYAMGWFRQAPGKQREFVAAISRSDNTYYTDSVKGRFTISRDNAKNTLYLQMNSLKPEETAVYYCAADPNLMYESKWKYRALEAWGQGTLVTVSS", "maximal absorbance at 450 nm": 1.57}
{"binder": "SVT15L (VHH) VHH: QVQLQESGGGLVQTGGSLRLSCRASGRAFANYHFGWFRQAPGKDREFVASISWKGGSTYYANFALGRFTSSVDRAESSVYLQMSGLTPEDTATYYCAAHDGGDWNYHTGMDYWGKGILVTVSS", "maximal absorbance at 450 nm": 1.34}
{"binder": "SVT02L (VHH) VHH: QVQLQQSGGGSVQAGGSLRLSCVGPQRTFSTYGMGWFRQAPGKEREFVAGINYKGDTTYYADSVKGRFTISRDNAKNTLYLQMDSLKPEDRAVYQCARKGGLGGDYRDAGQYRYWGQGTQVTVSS", "maximal absorbance at 450 nm": 0.077}
{"binder": "SVT25L (VHH) VHH: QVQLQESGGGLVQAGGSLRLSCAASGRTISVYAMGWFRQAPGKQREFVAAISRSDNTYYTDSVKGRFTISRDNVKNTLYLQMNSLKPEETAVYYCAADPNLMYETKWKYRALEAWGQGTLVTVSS", "maximal absorbance at 450 nm": 1.56}
{"binder": "SVT31L (VHH) VHH: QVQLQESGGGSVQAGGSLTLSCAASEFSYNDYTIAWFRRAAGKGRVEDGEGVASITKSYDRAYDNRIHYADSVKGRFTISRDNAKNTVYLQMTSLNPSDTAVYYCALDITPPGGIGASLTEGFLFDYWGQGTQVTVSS", "maximal absorbance at 450 nm": 1.32}
{"binder": "SVT29L (VHH) VHH: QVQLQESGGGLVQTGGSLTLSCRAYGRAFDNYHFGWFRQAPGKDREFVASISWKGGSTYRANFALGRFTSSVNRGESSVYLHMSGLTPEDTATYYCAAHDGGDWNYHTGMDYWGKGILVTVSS", "maximal absorbance at 450 nm": 1.52}
{"binder": "SVT22L (VHH) VHH: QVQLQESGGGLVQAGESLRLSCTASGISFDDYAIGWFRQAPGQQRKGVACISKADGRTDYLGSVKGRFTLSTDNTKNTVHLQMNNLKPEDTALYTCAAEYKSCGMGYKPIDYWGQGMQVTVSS", "maximal absorbance at 450 nm": 1.59}
